# System: Saccharomyces cerevisiae
# assay.explanation: protein stability index of tFT-peptide fusion (C-terminal peptide) (PSI (0-1 scale)); higher = more stable (slower turnover)
# settings: genetic background: das1 deletion; temperature: 37 C
reported.endpoint: protein stability index

INSERT INTO assay_data (biosequence, reported_endpoint, value_observed) VALUES
  ('GRGLRVCWVWSG', 'protein stability index', 0.743),
  ('DFVFFLVSVRFR', 'protein stability index', 0.32),
  ('FLLPWLRPVFFF', 'protein stability index', 0.69),
  ('FVCWGSLILCGG', 'protein stability index', 0.29),
  ('FPFPLSSFLLLY', 'protein stability index', 0.516),
  ('GVLIFLSFQPIA', 'protein stability index', 0.599),
  ('LRKARLFLKAKC', 'protein stability index', 0.705),
  ('YFTNCYRSILTF', 'protein stability index', 0.515),
  ('GSVHLTKERHLV', 'protein stability index', 0.744),
  ('WVVLVCGFVLLG', 'protein stability index', 0.442),
  ('SIWVGSRFRWVV', 'protein stability index', 0.775),
  ('FFASAAVHLVTC', 'protein stability index', 0.559),
  ('YLFFSCIFTFSC', 'protein stability index', 0.331),
  ('LLTGRFRILLVV', 'protein stability index', 0.276),
  ('RWCLVWGGVWGV', 'protein stability index', 0.674),
  ('KSRLFCFVYFLL', 'protein stability index', 0.501),
  ('LRLEFRTNWFLQ', 'protein stability index', 0.752),
  ('RTMLSNRIKSFI', 'protein stability index', 0.723),
  ('MRLQLTFSILLF', 'protein stability index', 0.393),
  ('YLGSPLSLMLVA', 'protein stability index', 0.51),
  ('MTLYSFSSALLA', 'protein stability index', 0.461),
  ('TSRRPFVLVMWL', 'protein stability index', 0.623),
  ('SLCELRCLLRVG', 'protein stability index', 0.631),
  ('FFVFPFGLLFLS', 'protein stability index', 0.583),
  ('NMVSMVVVIFGV', 'protein stability index', 0.437),
  ('ACLLCVCVESRE', 'protein stability index', 0.613),
  ('FRSMFLFLNLLF', 'protein stability index', 0.73),
  ('VSIRVVVWVSWG', 'protein stability index', 0.259),
  ('ACIFDMMWFWLF', 'protein stability index', 0.75),
  ('CHFLLHYVFLLS', 'protein stability index', 0.523),
  ('YWFWLLIGSFSC', 'protein stability index', 0.526),
  ('RILKLPGHVNDV', 'protein stability index', 0.697),
  ('FVWVVRMLVFVP', 'protein stability index', 0.383),
  ('CLNPCVRWDGHV', 'protein stability index', 0.77);

----------
# System: Saccharomyces cerevisiae
# assay.explanation: protein stability index of tFT-peptide fusion (C-terminal peptide) (PSI (0-1 scale)); higher = more stable (slower turnover)
# settings: genetic background: wild type; temperature: 30 C
reported.endpoint: protein stability index

INSERT INTO results (biosequence, reported_endpoint, value_observed) VALUES
  ('GSTNNHEVTENI', 'protein stability index', 0.688),
  ('YLKVNDELERRR', 'protein stability index', 0.695),
  ('VGSGFGGAGVIG', 'protein stability index', 0.696),
  ('RVPLHSSTVFWL', 'protein stability index', 0.7),
  ('REKKDKKNSKKI', 'protein stability index', 0.701),
  ('GFCLIVGVVPAL', 'protein stability index', 0.518),
  ('SRNKLNSIIIEK', 'protein stability index', 0.608),
  ('PVPPLPPRPPPL', 'protein stability index', 0.619),
  ('EKSPDYVFRWFR', 'protein stability index', 0.745),
  ('RIRLNHAMSTVV', 'protein stability index', 0.625),
  ('PPSSPPPPDSDR', 'protein stability index', 0.675),
  ('GLVDARRRWCFS', 'protein stability index', 0.62),
  ('QAVQTLTAETKH', 'protein stability index', 0.63),
  ('RPVQRLVPLTPR', 'protein stability index', 0.706),
  ('SASSFGTLYCYS', 'protein stability index', 0.697);

----------
Reported protein stability index values for a set of sequences
# Test system: Saccharomyces cerevisiae
# assay.explanation: protein stability index of tFT-peptide fusion (C-terminal peptide) (PSI (0-1 scale)); higher = more stable (slower turnover)
# settings: genetic background: wild type; temperature: 30 C
reported.endpoint: protein stability index

INSERT INTO measurements (biosequence, target_entity, value_observed) VALUES
  ('MQLREIIMIEKS', 'Saccharomyces cerevisiae', 0.693),
  ('LRSPGSHIVRLT', 'Saccharomyces cerevisiae', 0.569),
  ('CIGVGTVRGSHG', 'Saccharomyces cerevisiae', 0.673),
  ('CGMIQDKCEGEI', 'Saccharomyces cerevisiae', 0.738),
  ('RLPRILVLVCLF', 'Saccharomyces cerevisiae', 0.237),
  ('VVCFGNFGGVRV', 'Saccharomyces cerevisiae', 0.778);

----------
# System: Saccharomyces cerevisiae
# assay.explanation: protein stability index of tFT-peptide fusion (C-terminal peptide) (PSI (0-1 scale)); higher = more stable (slower turnover)
# settings: genetic background: das1 deletion; temperature: 37 C
Assign class by protein stability index: not lower than 0.6 means Met; lower than 0.6 means Not met.

INSERT INTO measurements (biosequence, category_label) VALUES
  ('SVLCLFSRLRSV', 'Met'),
  ('GVVWPLGWVWVE', 'Met'),
  ('RGFVVFCIPCFV', 'Not met'),
  ('GINHLSLKLRLF', 'Met'),
  ('SVFSFCLCVGVV', 'Not met'),
  ('VFSGVTTILVRT', 'Not met'),
  ('GVSLRVFVVSVC', 'Not met'),
  ('SGRFRAFVLRSM', 'Met'),
  ('GVSLQLHVAVLI', 'Not met'),
  ('TYKHIVRVNKCE', 'Met'),
  ('APGLLPPCLLVV', 'Not met'),
  ('VFFFNALFCFFC', 'Not met'),
  ('VIVQSWEIIRLN', 'Met');

----------
Reported protein stability index values for a set of sequences
# Tested on: Saccharomyces cerevisiae
# assay.explanation: protein stability index of tFT-peptide fusion (C-terminal peptide) (PSI (0-1 scale)); higher = more stable (slower turnover)
# settings: genetic background: wild type; temperature: 30 C
reported.endpoint: protein stability index

INSERT INTO measurements (biosequence, target_entity, reported_endpoint, value_observed) VALUES
  ('KIQWDIDPQLDG [SSY5 C-terminal 12 aa]', 'Saccharomyces cerevisiae', 'protein stability index', 0.723),
  ('KNSNLSPTQIEL [SSK1 C-terminal 12 aa]', 'Saccharomyces cerevisiae', 'protein stability index', 0.693),
  ('SLYTLNYNVKNP [ATG17 C-terminal 12 aa]', 'Saccharomyces cerevisiae', 'protein stability index', 0.691),
  ('LAPLQFSGIVRS [YDR274C C-terminal 12 aa]', 'Saccharomyces cerevisiae', 'protein stability index', 0.682),
  ('NTANRIIEELLK [UBC1 C-terminal 12 aa]', 'Saccharomyces cerevisiae', 'protein stability index', 0.67),
  ('KNHDFKDCADIF [SWH1 C-terminal 12 aa]', 'Saccharomyces cerevisiae', 'protein stability index', 0.688),
  ('DSFFFDVLAQLP [YLR434C C-terminal 12 aa]', 'Saccharomyces cerevisiae', 'protein stability index', 0.686),
  ('IHNDIPSHRKLK [FIR1 C-terminal 12 aa]', 'Saccharomyces cerevisiae', 'protein stability index', 0.659),
  ('SKREFIESLRPK [SKG1 C-terminal 12 aa]', 'Saccharomyces cerevisiae', 'protein stability index', 0.679),
  ('VGFAVMALMDEH [YKE4 C-terminal 12 aa]', 'Saccharomyces cerevisiae', 'protein stability index', 0.705),
  ('SSVAFSKNLECV [YGR139W C-terminal 12 aa]', 'Saccharomyces cerevisiae', 'protein stability index', 0.696),
  ('EAVYELAKMSLA [MYG1 C-terminal 12 aa]', 'Saccharomyces cerevisiae', 'protein stability index', 0.678),
  ('REETEKLNINKD [YAR1 C-terminal 12 aa]', 'Saccharomyces cerevisiae', 'protein stability index', 0.66),
  ('ERNGWKFFFKEV [YHR137C-A C-terminal 12 aa]', 'Saccharomyces cerevisiae', 'protein stability index', 0.66),
  ('NYGQYSSFWSLL [YOR055W C-terminal 12 aa]', 'Saccharomyces cerevisiae', 'protein stability index', 0.754),
  ('LRSCDLKRKSKK [YLR302C C-terminal 12 aa]', 'Saccharomyces cerevisiae', 'protein stability index', 0.68),
  ('FKIFAKLFCTRK [HLR1 C-terminal 12 aa]', 'Saccharomyces cerevisiae', 'protein stability index', 0.694),
  ('KQRFLLCWSTKL [YHR131W-A C-terminal 12 aa]', 'Saccharomyces cerevisiae', 'protein stability index', 0.55),
  ('LDDTPAPTATNL [NUD1 C-terminal 12 aa]', 'Saccharomyces cerevisiae', 'protein stability index', 0.701),
  ('IQINKGDNIFKN [YTM1 C-terminal 12 aa]', 'Saccharomyces cerevisiae', 'protein stability index', 0.732),
  ('HEEVKHTADTVD [CDC37 C-terminal 12 aa]', 'Saccharomyces cerevisiae', 'protein stability index', 0.67);
